settings: mouse, in vivo, iv
*1 amine or outer side, *2 acyl side, *3 side chain or, on linkers, in order; H or OH if unused. Where a SMILES comes first, the peptide text is derived from it. [ ]: non-standard residue; d: D form. The star is where a group is joined. PABC = O=C(OCc1ccc(N[*:1])cc1)[*:2]; hPhe = N[C@@H](CCc1ccccc1)C(=O)O; Boc = CC(C)(C)OC(=O)*; Nlys = NCCCCNCC(=O)O; X2 = CC(=O)NN*
reported.metric: tissue uptake at 1 h (%ID/g)
Numbers only, in %ID/g.

Q. Requested field: tissue uptake at 1 h. Item: CC(=O)NNC(=O)[C@@H](CC(C)C)NC(=O)OCc1ccc(NC(=O)[C@H](CC(C)C)NC(=O)[C@H](CCc2ccccc2)NC(=O)CN(CCCCNC(=O)OC(C)(C)C)C(=O)[C@H](CC(C)C)NC(=O)[C@@H]2CCCN2C(C)=O)cc1 [Example 142] (Ac-PL[Nlys](Boc)[hPhe]L[PABC][dL]-X2)
A. 2.1
